The reader will find reported MIC values listed item by item below.
Tested on: Escherichia coli (ATCC25922) or Staphylococcus aureus (ATCC25923)
Assay: Antibacterial MIC, microdilution method in Mueller-Hinton medium
Format: cell-based
Details: Escherichia coli, 18 h, read-out: Potency (MIC)
measureName: MIC

compoundstring=COc1cccc(C(=O)Nc2ccc(Nc3nc(N4C[C@H](N)C[C@H](N)C4)nc(N4C[C@H](N)C[C@H](N)C4)n3)cc2O)c1O endpointresult="< 16 µg/mL"
compoundstring=COc1ccccc1C(=O)Nc1ccc(Nc2nc(N3C[C@H](N)C[C@H](N)C3)nc(N3C[C@H](N)C[C@H](N)C3)n2)cc1O endpointresult="< 16 µg/mL"
compoundstring=Cc1cccc(C(=O)Nc2cccc(Nc3nc(N4C[C@H](N)C[C@H](N)C4)nc(N4C[C@H](N)C[C@H](N)C4)n3)c2)c1O endpointresult="< 16 µg/mL"
compoundstring=NC[C@@H]1C[C@@H](O)CN1c1nc(Nc2ccc(C(=O)CC(=O)Nc3ccc(F)c(F)c3)cc2)nc(N2C[C@H](N)C[C@H](N)C2)n1 endpointresult="< 64 µg/mL"
compoundstring=COc1ccc(O)c(C(=O)Nc2ccc(Nc3nc(N4C[C@H](N)C[C@H](N)C4)nc(N4C[C@H](N)C[C@H](N)C4)n3)cc2O)c1 endpointresult="< 16 µg/mL"
compoundstring=C[C@H](Nc1nc(N2C[C@H](N)C[C@H](N)C2)nc(N2C[C@H](N)C[C@H](N)C2)n1)c1cccc2ccccc12 endpointresult="> 64 µg/mL"
compoundstring=CC(=O)c1ccc(Nc2nc(N3C[C@H](N)C[C@H](N)C3)nc(N3C[C@@H](O)[C@@H](O)C3)n2)cc1 endpointresult="> 64 µg/mL"
compoundstring=N[C@@H]1C[C@H](N)CN(c2nc(Nc3ccc(C(=O)Nc4cc(Cl)c(O)c(Cl)c4)c(O)c3)nc(N3C[C@H](N)C[C@H](N)C3)n2)C1 endpointresult="< 64 µg/mL"
compoundstring=Cc1ccccc1NNc1nc(N2C[C@H](N)C[C@H](N)C2)nc(N2C[C@H](N)C[C@H](N)C2)n1 endpointresult="< 64 µg/mL"
compoundstring=N[C@@H]1C[C@H](N)CN(c2nc(NCCNc3ccc([N+](=O)[O-])cn3)nc(N3C[C@H](N)C[C@H](N)C3)n2)C1 endpointresult="> 64 µg/mL"
compoundstring=N[C@@H]1C[C@H](N)CN(c2nc(Nc3ccc4c(c3)-c3ccccc3C4=O)nc(N3C[C@@H](O)[C@@H](O)C3)n2)C1 endpointresult="> 64 µg/mL"
compoundstring=N[C@@H]1C[C@H](N)CN(c2nc(Nc3ccc(NS(=O)(=O)c4ccccc4)c(O)c3)nc(N3C[C@H](N)C[C@H](N)C3)n2)C1 endpointresult="< 64 µg/mL"
compoundstring=N[C@@H]1C[C@H](N)CN(c2nc(Nc3ccc(NC(=O)c4ccc(N5Cc6ccccc6C5)cc4O)c(O)c3)nc(N3C[C@H](N)C[C@H](N)C3)n2)C1 endpointresult="< 64 µg/mL"
compoundstring=N[C@@H]1C[C@H](N)CN(c2nc(Nc3ccc(C(=O)Nc4cccc(CO)c4)c(O)c3)nc(N3C[C@H](N)C[C@H](N)C3)n2)C1 endpointresult="< 64 µg/mL"

----------
Tested on: Escherichia coli (ATCC25922) or Staphylococcus aureus (ATCC25923)
Test: Antibacterial MIC, microdilution method in Mueller-Hinton medium
Assay type: cell-based
Conditions: Escherichia coli, 18 h, MIC in E. coli or S. aureus; two-fold serial dilutions 64 to 0.5 μg/ml in duplicate; 18 hours of incubation at 35° C.; read-out: Potency (MIC)
measureName: MIC

molecule=N[C@@H]1C[C@H](N)CN(c2nc(Nc3ccccc3O)nc(N3C[C@H](N)C[C@H](N)C3)n2)C1 measurename=MIC endpointresult="> 64 µg/mL"
molecule=Cl.c1ccc(N2CCN(c3nc(N4CCCCC4)nc(N4CCCCC4)n3)CC2)nc1 measurename=MIC endpointresult="> 64 µg/mL"
molecule="Cl.Nc1nc(Nc2ccc(Cl)c(Cl)c2)nc(C2C[C@@H](N)C[C@@H](N)C2)n1 (stereo partly drawn)" measurename=MIC endpointresult="> 64 µg/mL"
molecule=O=S(=O)(Nc1ccc2cn[nH]c2c1)c1ccc(Nc2nc(N3CCCCC3)nc(N3CCNCC3)n2)cc1 measurename=MIC endpointresult="> 64 µg/mL"
molecule=Cl.NS(=O)(=O)c1ccc(NC(=O)c2ccc(Nc3nc(N4CCCCC4)nc(N4CCCCC4)n3)cc2O)cc1 measurename=MIC endpointresult="> 64 µg/mL"
molecule=CCC(=O)Nc1ccc(Nc2nc(N3C[C@H](N)C[C@H](N)C3)nc(N3C[C@H](N)C[C@H](N)C3)n2)cc1O measurename=MIC endpointresult="< 64 µg/mL"
molecule=N[C@@H]1C[C@H](N)CN(c2nc(Nc3ccc(O)c4ncccc34)nc(N3C[C@H](N)C[C@H](N)C3)n2)C1 measurename=MIC endpointresult="< 64 µg/mL"
molecule=Cl.NC(=O)CNc1nc(N2C[C@H](N)C[C@H](N)C2)nc(N2C[C@H](N)C[C@H](N)C2)n1 measurename=MIC endpointresult="> 64 µg/mL"
molecule=CNC(=N)Nc1ccc(Nc2nc(C3CCCCC3)nc(N3CCCCC3)n2)cc1.Cl measurename=MIC endpointresult="> 64 µg/mL"
molecule=COc1cc(Nc2nc(N3CCCCC3)nc(N3CCCCC3)n2)ccc1NC(=O)c1ccc(Cl)cc1O.Cl measurename=MIC endpointresult="< 16 µg/mL"
molecule="N[C@@H]1CC(c2nc(NC3CCNCC3)nc(N3C[C@H](N)C[C@H](N)C3)n2)C[C@H](N)C1 (stereo partly drawn)" measurename=MIC endpointresult="> 64 µg/mL"
molecule=N[C@@H]1C[C@H](N)CN(c2nc(Nc3ccc(SC(F)(F)F)cc3)nc(N3C[C@H](N)C[C@H](N)C3)n2)C1 measurename=MIC endpointresult="< 64 µg/mL"
molecule=Cl.NC1CCN(c2nc(Nc3ccc(Cl)c(Cl)c3)nc(N3C[C@H](N)C[C@H](N)C3)n2)CC1 measurename=MIC endpointresult="< 64 µg/mL"
molecule=N[C@@H]1C[C@H](N)CN(c2nc(Nc3ccc(NC(=O)c4ccc5ccccc5c4)c(O)c3)nc(N3C[C@H](N)C[C@H](N)C3)n2)C1 measurename=MIC endpointresult="< 64 µg/mL"
molecule=CC12CC[C@](C(=O)Nc3ccc(Nc4nc(N5C[C@H](N)C[C@H](N)C5)nc(N5C[C@H](N)C[C@H](N)C5)n4)cc3O)(OC1=O)C2(C)C measurename=MIC endpointresult="< 64 µg/mL"
molecule=N[C@@H]1C[C@H](N)CN(c2nc(Nc3ccc(NC(=O)C45CC6CC(CC(C6)C4)C5)c(O)c3)nc(N3C[C@H](N)C[C@H](N)C3)n2)C1 measurename=MIC endpointresult="< 16 µg/mL"
molecule=Cl.NC(=O)[C@H](CO)Nc1nc(N2C[C@H](N)C[C@H](N)C2)nc(N2C[C@H](N)C[C@H](N)C2)n1 measurename=MIC endpointresult="> 64 µg/mL"
molecule=Cl.N[C@@H]1C[C@H](N)CN(c2nc(NNc3cc(Cl)ccc3Cl)nc(N3C[C@H](N)C[C@H](N)C3)n2)C1 measurename=MIC endpointresult="< 64 µg/mL"
molecule=N[C@@H]1C[C@H](N)CN(c2nc(Nc3ccccc3N3CCOCC3)nc(N3C[C@H](N)C[C@H](N)C3)n2)C1 measurename=MIC endpointresult="> 64 µg/mL"
molecule=N[C@@H]1C[C@H](N)CN(c2cc(N3C[C@H](N)C[C@H](N)C3)cc(N(c3ccc([N+](=O)[O-])cc3)c3ccc([N+](=O)[O-])cc3)c2)C1 measurename=MIC endpointresult="< 64 µg/mL"
molecule=Cl.O=C(CC(=O)N1CCC(n2c(=O)[nH]c3ccccc32)CC1)c1ccc(Nc2nc(N3CCCCC3)nc(N3CCCCC3)n2)cc1 measurename=MIC endpointresult="> 64 µg/mL"
molecule=Cc1ccc(S(=O)(=O)N(Cc2ccccc2)c2ccc(Nc3nc(NC4CCNCC4)nc(N4C[C@H](N)C[C@H](N)C4)n3)cc2O)cc1 measurename=MIC endpointresult="< 64 µg/mL"
molecule=Cl.NS(=O)(=O)c1ccc(NC(=O)CC(=O)c2ccc(Nc3nc(N4CCCCC4)nc(N4CCCCC4)n3)cc2)cc1 measurename=MIC endpointresult="< 64 µg/mL"
molecule=N[C@@H]1C[C@H](N)CN(c2nc(Nc3ccc(O)cc3)nc(N3C[C@H](N)C[C@H](N)C3)n2)C1 measurename=MIC endpointresult="> 64 µg/mL"
molecule=N[C@@H]1C[C@H](N)CN(c2nc(Nc3ccc(S(=O)(=O)Nc4ccc5cn[nH]c5c4)cc3)nc(N3C[C@H](N)C[C@H](N)C3)n2)C1 measurename=MIC endpointresult="> 64 µg/mL"
molecule=N[C@@H]1C[C@H](N)CN(c2nc(Nc3ccc(C(=O)CC(=O)Nc4ccccc4Cl)cc3)nc(N3C[C@H](N)C[C@H](N)C3)n2)C1 measurename=MIC endpointresult="< 16 µg/mL"
molecule=COc1nc(Nc2ccc3c(C)cc(=O)oc3c2)nc(N2CCCCC2)n1.Cl measurename=MIC endpointresult="> 64 µg/mL"
molecule=Cl.O=C(CC(=O)c1ccc(Nc2nc(N3CCCCC3)nc(N3CCCCC3)n2)cc1)Nc1ccccc1Cl measurename=MIC endpointresult="< 64 µg/mL"
molecule=COc1ccc(NC(=O)c2ccc(Cl)cc2O)c(Nc2nc(N3CCCCC3)nc(N3CCCCC3)n2)c1.Cl measurename=MIC endpointresult="> 64 µg/mL"
molecule=N=C(N)Nc1ccc(Nc2nc(N3CCCCC3)nc(N3CCCCC3)n2)cc1 measurename=MIC endpointresult="< 64 µg/mL"
